assay: Acute lethal activity test; details: both sexes, ICR, mouse, in vivo; in mice

molecule: COc1c(O)cc(O)c2c(=O)cc(-c3ccccc3)oc12 [wogonin]
LD50: ~4000 mg/kg
